Sourced from PubChem BioAssay (NCI)

Test system: COLO 205 colon
Experiment: NCI tumour cell line growth inhibition, 48 h; in the data active means GI50 below about 0.43 µM; inactive means the rest
Labels: label 1 for active, label 0 for inactive

[[record]]
compound = "CN(C(=O)c1ccc(C(F)(F)F)cc1)c1ccc(Oc2ccc3c(c2)cc(C(=O)N2CCN(Cc4ccc(OC(F)F)cc4)CC2)n3C)nc1"
target_under_test = "COLO 205 colon"
label_class = "label 0"

[[record]]
compound = "Nc1ncnc2n[nH]c(Nc3ccc(F)cc3)c12"
target_under_test = "COLO 205 colon"
label_class = "label 0"

[[record]]
compound = "CC[C@H](Nc1ncnc2nc[nH]c12)c1oc2ccccc2c(=O)c1-c1cccc(F)c1"
target_under_test = "COLO 205 colon"
label_class = "label 0"

[[record]]
compound = "COc1ccc([C@H]2[C@@H](F)C(=O)N2c2cc(OC)c(OC)c(OC)c2)cc1F"
target_under_test = "COLO 205 colon"
label_class = "label 1"

[[record]]
compound = "COc1ccc(-c2nnc(COc3ccc(C(=O)/C=C/c4ccco4)cc3)o2)cc1"
target_under_test = "COLO 205 colon"
label_class = "label 0"

[[record]]
compound = "COc1cc2c3c(n(C)c(=O)c2cc1OC)-c1cc2c(cc1/C3=C\\CCN)OCO2"
target_under_test = "COLO 205 colon"
label_class = "label 0"

[[record]]
compound = "CCN(CC)c1ccc(-c2cc(-c3cc(OC)c(OC)c(OC)c3)nc(N3CCOCC3)c2C#N)cc1"
target_under_test = "COLO 205 colon"
label_class = "label 0"

[[record]]
compound = "Cc1cccc(NC(=O)Cn2cnc3sc(C(=O)OC(C)C)c(C)c3c2=O)c1"
target_under_test = "COLO 205 colon"
label_class = "label 0"

[[record]]
compound = "CCCCCCCC(=O)SCC/C=C/[C@@H]1CC(=O)NCc2cc(ccn2)C2=N[C@@](C)(CS2)C(=O)N[C@@H](C(C)C)C(=O)O1"
target_under_test = "COLO 205 colon"
label_class = "label 1"

[[record]]
compound = "O=C(/C=C/c1ccc(Cl)cc1)c1ccc(Nc2ccnc3cc(Cl)ccc23)cc1"
target_under_test = "COLO 205 colon"
label_class = "label 0"

[[record]]
compound = "Cc1cc(/C=C/c2ccc3cc(N(C)C)ccc3[n+]2C)c(C)n1-c1ccccc1"
target_under_test = "COLO 205 colon"
label_class = "label 1"

[[record]]
compound = "O=C1OC(O)[C@@H]2[C@H]1[C@H]1CC[C@@H]2O1 (some centres not stated)"
target_under_test = "COLO 205 colon"
label_class = "label 0"


---

Tested on: A498 renal
Test: NCI tumour cell line growth inhibition, 48 h
This section presents molecules with their documented TGI values.
experimental.readout: TGI

[[record]]
molecule = "Cc1ccc(C(=C2Sc3ccccc3S2)C(=C2Sc3ccccc3S2)c2ccc(C)s2)s1"
recorded_value = "> 100 µM"

[[record]]
molecule = "COc1ccc2c(c1)OCC1Cc3ccccc3OC21 (centres undefined)"
recorded_value = "> 10 µM"

[[record]]
molecule = "NS(=O)(=O)c1cc2c(cc1Cl)NC(CCC(=O)O)=NS2(=O)=O"
recorded_value = "> 100 µM"

[[record]]
molecule = "O=C(/C=C/c1ccc(Cl)cc1)c1ccc(Nc2ccnc3cc(Cl)ccc23)cc1"
recorded_value = "> 71.8 µM"


---

Test system: M19-MEL melanoma
Test: NCI tumour cell line growth inhibition, 48 h
# TGI per record follows
experimental.readout: TGI

[[record]]
molecule = "CC(=O)OC1=CC(n2cc(F)c(=O)[nH]c2=O)OC(C)C1=O (stereo unspecified)"
recorded_value = "> 100 µM"

[[record]]
molecule = "Cc1cn(C2CC(O)C(CO)O2)c(=O)[nH]c1=O (stereo unspecified)"
recorded_value = "> 5000 µM"

[[record]]
molecule = "O=S1(=O)OCCOS(=O)(=O)C1Br"
recorded_value = "> 100 µM"

[[record]]
molecule = "CCOC(=O)NC(=O)c1cn(CCCO)c(=O)[nH]c1=O"
recorded_value = "> 100 µM"

[[record]]
molecule = "C[Si](C)(C)C1(Sc2ccccc2)SCCCS1"
recorded_value = "> 100 µM"

[[record]]
molecule = "Clc1ccc(C(c2ccc(Cl)cc2)c2ccccn2)cc1"
recorded_value = "> 100 µM"

